Target: Muscarinic acetylcholine receptor M2 (Homo sapiens) (UniProt P08172)
Sequence (whole entry): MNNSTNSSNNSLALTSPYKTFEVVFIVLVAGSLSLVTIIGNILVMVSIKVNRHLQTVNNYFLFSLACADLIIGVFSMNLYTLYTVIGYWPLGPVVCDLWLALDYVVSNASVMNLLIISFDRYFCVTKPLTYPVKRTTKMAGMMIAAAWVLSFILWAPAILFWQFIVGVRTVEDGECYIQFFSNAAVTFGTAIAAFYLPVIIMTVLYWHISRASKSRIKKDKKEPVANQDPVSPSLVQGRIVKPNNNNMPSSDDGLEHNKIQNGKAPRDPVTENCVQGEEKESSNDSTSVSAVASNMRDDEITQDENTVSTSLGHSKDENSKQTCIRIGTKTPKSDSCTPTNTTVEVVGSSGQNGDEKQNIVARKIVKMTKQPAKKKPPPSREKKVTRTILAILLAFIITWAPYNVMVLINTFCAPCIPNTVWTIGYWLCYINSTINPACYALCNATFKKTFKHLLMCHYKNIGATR
Conditions: Compound concentration 10 µM
Description: PDSP Primary Binding target: CHRM2 - Compounds are tested at 10 uM concentration, plate are incubated at room temperature in the dark for 90 minutes. Reaction are stopped by vacuum filtration onto 0.3% polyethyleneimine soaked filter mats using Filtermate harvester. Scintilation cocktail is then melted onto microwave-dried filters on a hot plate and the radio activity is counted in Microbia counter.
Short version: inhibition at least 20% is yes, less is no.

{"columns": ["compound", "group.label"],
 "data": [
  ["Cc1ccc(O)c([C@H](CCN(C(C)C)C(C)C)c2ccccc2)c1", "yes"],
  ["CNc1nc(NCc2ccc(NS(C)(=O)=O)cc2Cl)cc(-c2ccccn2)n1", "no"],
  ["Cc1c(OCc2cccc(-c3ccc(C(=O)O)cc3)c2)cc2c(c1C)C(=O)C(C1CCCC1)C2 (centres undefined)", "yes"],
  ["CN1CCCC(n2nc(Cc3ccc(Cl)cc3)c3ccccc3c2=O)CC1 (centres undefined)", "yes"],
  ["O=c1ccn([C@@H]2O[C@H](COP(=O)(O)OP(=O)(O)O)[C@@H](O)[C@H]2O)c(=O)[nH]1", "no"],
  ["CCCCCNC(=O)NS(=O)(=O)c1cc([N+](=O)[O-])ccc1NC1CCCCC1", "no"],
  ["CCOC(=O)c1c(C)[nH]c2ccc3c(c12)CN1CCc2cc(OC)ccc2C1O3 (centres undefined)", "yes"],
  ["Cc1nc2sccn2c(=O)c1CCN1CCC(=C(c2ccc(F)cc2)c2ccc(F)cc2)CC1", "yes"],
  ["COc1cccc(-c2c(C)n(Cc3c(F)cccc3C(F)(F)F)c(=O)n(C[C@H](NCCCC(=O)O)c3ccccc3)c2=O)c1F", "no"]
]}
